- ASSAY_NOTES: clinical
- CONDITION_LABEL: human, in vivo, po
PROPERTY_NAME: Tmax

- COMPOUND: "Cc1cc(NS(=O)(=O)c2ccc(N)cc2)no1 [SULFAMETHOXAZOLE]"
  TEST_VALUE: "1 to 4 h"

Value source: ChEMBL document CHEMBL3832052
